Every entry's value here was drawn from patent US20230407373A1.

tested on: HCoV-OC43 gRNA and sgRNA; format: binding; details: type n_48_v; 48 hpi; OC43 Probe II capture on infected cells
measurement kind: target (unweighted spectral count, OC43 Probe II)

[
  {
    "molecule": "SRSF5: host protein, UniProt Q13243 (protein, UniProt Q13243 1-272, looked up) Serine/arginine-rich splicing …: MSGCRVFIGRLNPAAREKDVERFFKGYGRIRDIDLKRGFGFVEFEDPRDADDAVYELDGKELCSERVTIEHARARSRGGRGRGRYSDRFSSRRPRNDRRNAPPVRTENRLIVENLSSRVSWQDLKDFMRQAGEVTFADAHRPKLNEGVVEFASYGDLKNAIEKLSGKEINGRKIKLIEGSKRHSRSRSRSRSRTRSSSRSRSRSRSRSRKSYSRSRSRSRSRSRSKSRSVSRSPVPEKSQKRGSSSRSKSPASVDRQRSRSRSRSRSVDSGN",
    "assay result": 12
  },
  {
    "molecule": "PURA (protein, UniProt Q00577 2-322, looked up) Transcriptional activator …: ADRDSGSEQGGAALGSGGSLGHPGSGSGSGGGGGGGGGGGGSGGGGGGAPGGLQHETQELASKRVDIQNKRFYLDVKQNAKGRFLKIAEVGAGGNKSRLTLSMSVAVEFRDYLGDFIEHYAQLGPSQPPDLAQAQDEPRRALKSEFLVRENRKYYMDLKENQRGRFLRIRQTVNRGPGLGSTQGQTIALPAQGLIEFRDALAKLIDDYGVEEEPAELPEGTSLTVDNKRFFFDVGSNKYGVFMRVSEVKPTYRNSITVPYKVWAKFGHTFCKYSEEMKKIQEKQREKRAACEQLHQQQQQQQEETAAATLLLQGEEEGEED",
    "assay result": 12
  },
  {
    "molecule": "TRA2B: host protein, UniProt P62995 (protein, UniProt P62995 2-288, looked up) Transformer-2 protein homolog …: SDSGEQNYGERESRSASRSGSAHGSGKSARHTPARSRSKEDSRRSRSKSRSRSESRSRSRRSSRRHYTRSRSRSRSHRRSRSRSYSRDYRRRHSHSHSPMSTRRRHVGNRANPDPNCCLGVFGLSLYTTERDLREVFSKYGPIADVSIVYDQQSRRSRGFAFVYFENVDDAKEAKERANGMELDGRRIRVDFSITKRPHTPTPGIYMGRPTYGSSRRRDYYDRGYDRGYDDRDYYSRSYRGGGGGGGGWRAAQDRDQIYRRRSPSPYYSRGGYRSRSRSRSYSPRRY",
    "assay result": 12
  },
  {
    "molecule": "PURB (protein, UniProt Q96QR8 2-312, looked up) Transcriptional regulator …: ADGDSGSERGGGGGPCGFQPASRGGGEQETQELASKRLDIQNKRFYLDVKQNAKGRFLKIAEVGAGGSKSRLTLSMAVAAEFRDSLGDFIEHYAQLGPSSPEQLAAGAEEGGGPRRALKSEFLVRENRKYYLDLKENQRGRFLRIRQTVNRGGGGFGAGPGPGGLQSGQTIALPAQGLIEFRDALAKLIDDYGGEDDELAGGPGGGAGGPGGGLYGELPEGTSITVDSKRFFFDVGCNKYGVFLRVSEVKPSYRNAITVPFKAWGKFGGAFCRYADEMKEIQERQRDKLYERRGGGSGGGEESEGEEVDED",
    "assay result": 5
  }
]
